test: Oral bioavailability in dog at 1 mg/kg, iv and 5 mg/kg, po; format: ADME, organism-based, Canis lupus familiaris; details: in vivo
PROPERTY_NAME: bioavailability (%)

[
  {
    "CPD_SMILES": "CN(O)C(=O)c1cc2c(CN3CCC[C@H]3C(N)=O)cn(Cc3ccc(F)cc3)c2cn1",
    "REPORTED": 53
  },
  {
    "CPD_SMILES": "CN(O)C(=O)c1cc2c(CN3CCNC(=O)C3)cn(Cc3ccc(F)cc3)c2cn1",
    "REPORTED": 20
  }
]

----------
test: Plasma clearance in dog at 1 mg/kg, iv and 5 mg/kg, po; format: ADME, organism-based, Canis lupus familiaris
PROPERTY_NAME: clearance (mL/min/kg)

[
  {
    "CPD_SMILES": "CN(O)C(=O)c1cc2c(CN3CCC[C@H]3C(N)=O)cn(Cc3ccc(F)cc3)c2cn1",
    "REPORTED": 15
  },
  {
    "CPD_SMILES": "CN(O)C(=O)c1cc2c(CN3CCNC(=O)C3)cn(Cc3ccc(F)cc3)c2cn1",
    "REPORTED": 24
  }
]

----------
experiment: Volume of distribution at steady state in dog at 1 mg/kg, iv and 5 mg/kg, po; type: ADME, organism-based, Canis lupus familiaris; details: in vivo, read-out: Vdss
Catalogue of Vd values
PROPERTY_NAME: Vd (L/kg)

[
  {
    "CPD_SMILES": "CN(O)C(=O)c1cc2c(CN3CCC[C@H]3C(N)=O)cn(Cc3ccc(F)cc3)c2cn1",
    "PROPERTY_NAME": "Vd",
    "UNIT_TEXT": "L/kg",
    "REPORTED": 2.32
  },
  {
    "CPD_SMILES": "CN(O)C(=O)c1cc2c(CN3CCNC(=O)C3)cn(Cc3ccc(F)cc3)c2cn1",
    "PROPERTY_NAME": "Vd",
    "UNIT_TEXT": "L/kg",
    "REPORTED": 1.8
  }
]

----------
molecular target: Voltage-gated inwardly rectifying potassium channel KCNH2 (Homo sapiens, UniProt Q12809)
Sequence (Q12809 whole entry): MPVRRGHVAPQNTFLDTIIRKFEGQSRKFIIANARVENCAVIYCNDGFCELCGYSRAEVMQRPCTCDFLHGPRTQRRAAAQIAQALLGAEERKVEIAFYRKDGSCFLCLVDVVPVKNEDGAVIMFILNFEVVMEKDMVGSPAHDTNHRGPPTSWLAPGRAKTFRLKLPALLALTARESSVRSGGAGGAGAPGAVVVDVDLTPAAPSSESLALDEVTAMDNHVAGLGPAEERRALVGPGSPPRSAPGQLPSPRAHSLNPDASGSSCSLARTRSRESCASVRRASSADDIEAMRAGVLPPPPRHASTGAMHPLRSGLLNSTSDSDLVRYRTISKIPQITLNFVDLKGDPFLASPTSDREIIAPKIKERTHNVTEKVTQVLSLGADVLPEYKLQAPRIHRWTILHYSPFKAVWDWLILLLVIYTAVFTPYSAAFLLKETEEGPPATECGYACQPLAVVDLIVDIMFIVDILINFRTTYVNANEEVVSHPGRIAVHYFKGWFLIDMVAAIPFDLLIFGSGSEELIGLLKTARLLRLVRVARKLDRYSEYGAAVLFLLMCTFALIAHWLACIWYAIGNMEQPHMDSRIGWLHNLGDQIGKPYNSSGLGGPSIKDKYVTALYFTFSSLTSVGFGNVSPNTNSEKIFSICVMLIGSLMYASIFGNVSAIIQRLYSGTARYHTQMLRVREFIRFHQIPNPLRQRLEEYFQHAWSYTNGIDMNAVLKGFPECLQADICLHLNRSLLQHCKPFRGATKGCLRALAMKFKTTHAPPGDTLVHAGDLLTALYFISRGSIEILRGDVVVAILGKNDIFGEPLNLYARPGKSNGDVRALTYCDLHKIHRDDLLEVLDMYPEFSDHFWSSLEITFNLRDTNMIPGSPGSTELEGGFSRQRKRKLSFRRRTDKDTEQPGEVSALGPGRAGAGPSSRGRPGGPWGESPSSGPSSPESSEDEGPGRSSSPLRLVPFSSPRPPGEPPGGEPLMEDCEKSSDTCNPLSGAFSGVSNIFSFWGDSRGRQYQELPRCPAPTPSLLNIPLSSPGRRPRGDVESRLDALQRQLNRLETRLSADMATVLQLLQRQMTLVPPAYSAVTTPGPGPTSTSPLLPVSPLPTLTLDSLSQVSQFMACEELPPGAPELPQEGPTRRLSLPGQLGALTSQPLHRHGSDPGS
PROPERTY_NAME: IC50

[
  {
    "CPD_SMILES": "CN(O)C(=O)c1cc2c(CN3CCC[C@H]3C(N)=O)cn(Cc3ccc(F)cc3)c2cn1",
    "PROPERTY_NAME": "IC50",
    "REPORTED": "> 30 µM"
  }
]

----------
biological target: Human immunodeficiency virus type 1 integrase (Human immunodeficiency virus 1)
Sequence (Q7ZJM1 whole entry): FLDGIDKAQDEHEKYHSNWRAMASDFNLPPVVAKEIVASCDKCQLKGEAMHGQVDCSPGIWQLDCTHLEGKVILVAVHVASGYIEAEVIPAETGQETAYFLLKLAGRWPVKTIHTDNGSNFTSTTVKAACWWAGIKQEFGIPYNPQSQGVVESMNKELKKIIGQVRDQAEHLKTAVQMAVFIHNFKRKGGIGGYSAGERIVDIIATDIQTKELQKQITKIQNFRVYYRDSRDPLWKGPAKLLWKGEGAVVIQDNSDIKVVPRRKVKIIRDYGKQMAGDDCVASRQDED
pIC50: −log10 of the molar value.
Collected pIC50 values appear next to each entry.

[
  {
    "MOLECULE": "CN(O)C(=O)c1cc2c(CO)cn(Cc3ccc(F)cc3)c2cn1",
    "pIC50": 6.84
  },
  {
    "MOLECULE": "CN(O)C(=O)c1cc2ccn(Cc3ccc(F)cc3F)c2cn1",
    "pIC50": 6.60
  },
  {
    "MOLECULE": "CN(O)C(=O)c1cc2c(C(=O)N3CCC[C@@H]3CO)cn(Cc3ccc(F)cc3)c2cn1",
    "pIC50": 6.50
  },
  {
    "MOLECULE": "COCc1cn(Cc2ccc(F)cc2)c2cnc(C(=O)N(C)O)cc12",
    "pIC50": 6.62
  },
  {
    "MOLECULE": "CN(O)C(=O)c1cc2c(CCCN3CCOCC3)cn(Cc3ccc(F)cc3)c2cn1",
    "pIC50": 6.25
  },
  {
    "MOLECULE": "CCOCCOCc1cn(Cc2ccc(F)cc2)c2cnc(C(=O)N(C)O)cc12",
    "pIC50": 6.51
  },
  {
    "MOLECULE": "CN(O)C(=O)c1cc2c(CCCO)cn(Cc3ccc(F)cc3)c2cn1",
    "pIC50": 6.47
  },
  {
    "MOLECULE": "CN(O)C(=O)c1cc2c(COC3CCOCC3)cn(Cc3ccc(F)cc3)c2cn1",
    "pIC50": 6.50
  },
  {
    "MOLECULE": "CN(O)C(=O)c1cc2c(C(=O)NCCN3CCOCC3)cn(Cc3ccc(F)cc3)c2cn1",
    "pIC50": 6.30
  },
  {
    "MOLECULE": "CN(O)C(=O)c1cc2c(CN3CCC(O)C3)cn(Cc3ccc(F)cc3)c2cn1 (stereo unspecified)",
    "pIC50": 5.85
  },
  {
    "MOLECULE": "CN(O)C(=O)c1cc2ccn(Cc3ccc(F)cc3)c2cn1",
    "pIC50": 6.60
  },
  {
    "MOLECULE": "COCCOCCCc1cn(Cc2ccc(F)cc2)c2cnc(C(=O)N(C)O)cc12",
    "pIC50": 6.26
  },
  {
    "MOLECULE": "CN(O)C(=O)c1cc2c(CN3CCNC(=O)C3)cn(Cc3ccc(F)cc3)c2cn1",
    "pIC50": 6.41
  },
  {
    "MOLECULE": "CN1CCN(Cc2cn(Cc3ccc(F)cc3)c3cnc(C(=O)N(C)O)cc23)CC1",
    "pIC50": 6.27
  },
  {
    "MOLECULE": "CC(C)NC(=O)c1cn(Cc2ccc(F)cc2)c2cnc(C(=O)N(C)O)cc12",
    "pIC50": 6.60
  },
  {
    "MOLECULE": "COCCOCc1cn(Cc2ccc(F)cc2)c2cnc(C(=O)N(C)O)cc12",
    "pIC50": 6.42
  }
]

----------
experiment: Oral bioavailability in human; assay type: ADME, organism-based; settings: in vivo

[
  {
    "CPD_SMILES": "CN(O)C(=O)c1cc2c(CN3CCC[C@H]3C(N)=O)cn(Cc3ccc(F)cc3)c2cn1",
    "bioavailability": "41%"
  }
]

----------
experiment: Volume of distribution at steady state in human; assay type: ADME, organism-based; settings: in vivo, read-out: Vdss
PROPERTY_NAME: Vd (L/kg)

[
  {
    "CPD_SMILES": "CN(O)C(=O)c1cc2c(CN3CCC[C@H]3C(N)=O)cn(Cc3ccc(F)cc3)c2cn1",
    "PROPERTY_NAME": "Vd",
    "REPORTED": 2.15
  }
]

----------
system: Human immunodeficiency virus 1; assay: Antiviral activity against HIV1 RF infected in human CEM-SS cells assessed as inhibition of virus-induced cytopathic effect after 6 days by XTT assay; assay type: functional, organism-based; settings: Human immunodeficiency virus 1, RF, 144 h
pEC50: −log10 of the molar value.

[
  {
    "COMPOUND": "CCOCCOCc1cn(Cc2ccc(F)cc2)c2cnc(C(=O)N(C)O)cc12",
    "pEC50": 7.24
  },
  {
    "COMPOUND": "CN(O)C(=O)c1cc2c(CCCN3CCOCC3)cn(Cc3ccc(F)cc3)c2cn1",
    "pEC50": 6.33
  },
  {
    "COMPOUND": "COCCOCc1cn(Cc2ccc(F)cc2)c2cnc(C(=O)N(C)O)cc12",
    "pEC50": 7.54
  },
  {
    "COMPOUND": "CN(O)C(=O)c1cc2ccn(Cc3ccc(F)cc3F)c2cn1",
    "pEC50": 7.41
  },
  {
    "COMPOUND": "CN(O)C(=O)c1cc2c(COC3CCOCC3)cn(Cc3ccc(F)cc3)c2cn1",
    "pEC50": 7.24
  },
  {
    "COMPOUND": "CC(C)NC(=O)c1cn(Cc2ccc(F)cc2)c2cnc(C(=O)N(C)O)cc12",
    "pEC50": 6.96
  },
  {
    "COMPOUND": "CN(O)C(=O)c1cc2c(CCCO)cn(Cc3ccc(F)cc3)c2cn1",
    "pEC50": 7.39
  },
  {
    "COMPOUND": "CN1CCN(Cc2cn(Cc3ccc(F)cc3)c3cnc(C(=O)N(C)O)cc23)CC1",
    "pEC50": 6.66
  },
  {
    "COMPOUND": "CN(O)C(=O)c1cc2c(CO)cn(Cc3ccc(F)cc3)c2cn1",
    "pEC50": 7.27
  },
  {
    "COMPOUND": "COCCOCCCc1cn(Cc2ccc(F)cc2)c2cnc(C(=O)N(C)O)cc12",
    "pEC50": 6.66
  },
  {
    "COMPOUND": "CN(O)C(=O)c1cc2c(CN3CCC[C@@H]3C(N)=O)cn(Cc3ccc(F)cc3)c2cn1",
    "pEC50": 7.10
  },
  {
    "COMPOUND": "CN(O)C(=O)c1cc2c(CN3CCNC(=O)C3)cn(Cc3ccc(F)cc3)c2cn1",
    "pEC50": 6.82
  },
  {
    "COMPOUND": "CN(O)C(=O)c1cc2c(CN3CCC(O)C3)cn(Cc3ccc(F)cc3)c2cn1 (stereo unspecified)",
    "pEC50": 6.13
  },
  {
    "COMPOUND": "CN(O)C(=O)c1cc2c(C(=O)N3CCC[C@@H]3CO)cn(Cc3ccc(F)cc3)c2cn1",
    "pEC50": 6.77
  },
  {
    "COMPOUND": "COCc1cn(Cc2ccc(F)cc2)c2cnc(C(=O)N(C)O)cc12",
    "pEC50": 7.39
  },
  {
    "COMPOUND": "CN(O)C(=O)c1cc2c(C(=O)NCCN3CCOCC3)cn(Cc3ccc(F)cc3)c2cn1",
    "pEC50": 6.68
  }
]
